Data origin: a melting point compilation (Tetko et al.; mined from patent text by program, amines drawn as free bases though some values may be those of a salt)

Measured melting point by item

Molecule | melting point
CC(C)(c1ccccc1)c1cccc(S(=O)(=O)NC(CCCNC(=N)N)C(=O)N2CCC(CC(=O)O)CC2)c1 (stereo not given) | 188 to 191 °C

Request: Form field: reported melting point of NNc1nccc(-c2ccccc2)n1
Response: 116 to 118 °C

Request: Form field: reported melting point of COc1cc(OC)nc(C(=O)NS(=O)(=O)CC(C)C)n1
Response: 128 to 130 °C

Request: Form field: reported melting point of CCCCCC(=O)n1c(=O)n(CCCC)c(=O)n1C(=O)CCCCC
Response: 88 to 89 °C

Request: Form field: reported melting point of CCOC(=O)Cc1c(C)n(CCCc2ccccc2)c2cccc(OCc3csc(-c4ccccc4)n3)c12
Response: 90 to 94 °C

Request: Form field: reported melting point of CCSC=C1C(=O)OC(C)(C)OC1=O
Response: 52 to 54 °C

Request: Form field: reported melting point of CCOC(=O)C(NC(C)=O)C(=O)c1ccccc1 (stereo not given)
Response: 63 to 64 °C
